- target.under.test: HLAB*2705 (Homo sapiens, UniProt P01889, D138H/D201E/E176V/E204Q/G107R/H137Y/K202T/N104T/N87E/Q56L/Q94K/R106L/R155S/R180L/S101D/S121N/S48T/Y140D/Y33H/Y91C)
- assay.info: REVEAL MHC-peptide binding assay
- condition.details: REVEAL binding score relative to positive control peptide; pass threshold ≥45%
Ends that are not written are not given here.
quantity.measured: % Positive Control

>>> val("8 (DRASFIKNL; Collagen peptide fragment) [Peptide 8]")
"0.04%"
>>> val("KRFNALQYL [human lumican residues 226-234]")
"0.24%"
>>> val("ARKLLLDNL [Peptide P2]")
"5.26%"
>>> val("KRLAETLAL [compound 1, KRLAETLAL]")
"105.51%"
>>> val("NRFSVAYML [Peptide P3]")
"0.00%"
>>> val("10 (ARGQPGVMG) [Peptide 10]")
"1.06%"
>>> val("9 (SRHHAFCFR; Aggrecan peptide fragment) [Peptide 9]")
"0.02%"

src = patent US10364277B2
